Target: EGFRvIII-Fc fusion antigen (human, UniProt P00533 25-645)
Experiment: SPR Biacore T200, EGFRvIII-Fc captured via anti-hu Fc, scFv analyte, 1:1 model;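 further: Multi-cycle kinetics on a CM5 chip in HBS-P+ running buffer, 180 s scFv association then 540 s dissociation, with blank flow cell signals subtracted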
Measured KD improvement factor vs parental scFv Li3G30, listed per entry for reference.
Give a bare numeral; the unit fold is implied.

Q: // returns reported KD improvement factor vs parental scFv Li3G30 for input scFv 475 (scFv, V domains shown, One-chain scFv, His-tagged) VH: EVQLVQSGAEVKKPGESLKISCKGSGYSFTSYWIGWVRQMPGKGLEWMGIIYPDDSDTRYSPSFQGQVTISADKSISTAYLQWSSLKASDTAMYYCARLGSSWTNDAFDIWGQGTLVTVSS VL: SYELTQPPSVSVSPGQTARITCSGDALPKQYAYWYQQKPGQAPVLVIYKDTERPSGIPERFSGSSSGTTVTLTISGVQAEDEADYYCQSVDSSGTYVVFGGGTKLTVL
A: 11.1

Q: Find the recorded KD improvement factor vs parental scFv Li3G30 belonging to scFv 469 (scFv, V domains shown, One-chain scFv, His-tagged) VH: EVQLVQSGAEVKKPGESLKISCKGSGYSFNSYWIGWVRQMPGKGLEWMGIIYPGDSDTRYSPSFQGQVTISADKSISTAYLQWSSLKASDTAMYYCARLGSSWTNDAFDIWGQGTLVTVSS VL: SYELTQPPSVSVSPGQTARITCSGDTLPKQYAYWYQQKPGQAPVLVIYKDSERPSGIPERFSGSSSGTTVTLTISGVQAEDEADYYCQSVDVSGTYVVFGGGTKLTVL and report it.
A: 10.8

Q: Item scFv 471 (scFv, V domains shown, One-chain scFv, His-tagged) VH: EVQLVQSGAEVKKPGESLKISCKGSGYSFNSYWIGWVRQMPGKGLEWMGIIYPGDSANRYSPSFQGQVTISADKSISTAYLQWSSLKASDTAMYYCARLGSSWTNDAFDIWGQGTLVTVSS VL: SYELTQPPSVSVSPGQTARITCSGDYLPKQYAYWYQQKPGQAPVLVIYKDTERPSGIPERFSGSSSGTTVTLTISGVQAEDEADYYCQSVDSSHPSVVFGGGTKLTVL has what recorded KD improvement factor vs parental scFv Li3G30?
A: 29.9
